Assay system: Caspase-1 (Mus musculus) (UniProt P29452)
Sequence (P29452 119-296 limits assumed): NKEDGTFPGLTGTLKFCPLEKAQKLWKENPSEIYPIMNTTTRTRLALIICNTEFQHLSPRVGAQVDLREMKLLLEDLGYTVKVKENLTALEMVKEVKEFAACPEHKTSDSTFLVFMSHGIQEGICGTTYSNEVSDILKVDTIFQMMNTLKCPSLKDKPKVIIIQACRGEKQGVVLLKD
Sequence (P29452 315-402 limits assumed): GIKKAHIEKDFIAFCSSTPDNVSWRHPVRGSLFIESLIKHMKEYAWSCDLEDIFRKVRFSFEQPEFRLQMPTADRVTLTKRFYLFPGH
Experiment summary: Inhibitory activity against murine Caspase-1
Reported metric: k3/Ki (M⁻¹ s⁻¹)
Provide only the numeric value, understood in M⁻¹ s⁻¹.

Cc1c(C(=O)N[C@H](C(=O)NC(CC(=O)O)C(=O)CF)C(C)C)n(C)c2ccccc12 (some centres not stated) :: 10100
C[C@H](NC(=O)C(=O)Nc1cc(C(C)(C)C)ccc1C(C)(C)C)C(=O)N[C@@H](CC(=O)O)C(=O)COC(=O)c1c(Cl)cccc1Cl :: 4.02e+06

Q: Request the reported k3/Ki associated with C[C@H](NC(=O)C(=O)Nc1ccccc1Cl)C(=O)N[C@@H](CC(=O)O)C(=O)COP(=O)(c1ccccc1)c1ccccc1
A: 3.96e+06

Q: Now the compound C[C@H](NC(=O)C(=O)Nc1ccccc1-c1ccccc1)C(=O)N[C@@H](CC(=O)O)C(=O)COC(=O)c1c(Cl)cccc1Cl
A: 7.28e+06

Q: Subsequent entry: C[C@H](NC(=O)C(=O)Nc1ccccc1Cc1ccccc1)C(=O)N[C@@H](CC(=O)O)C(=O)COc1c(F)c(F)cc(F)c1F
A: 1.97e+06

Q: # iterate: C[C@H](NC(=O)C(=O)Nc1ccccc1Br)C(=O)N[C@@H](CC(=O)O)C(=O)COc1c(F)c(F)cc(F)c1F
A: 1.34e+06

Q: Field entry: C[C@H](NC(=O)C(=O)Nc1ccccc1-c1ccccc1)C(=O)N[C@@H](CC(=O)O)C(=O)COP(=O)(c1ccccc1)c1ccccc1
A: 5e+06

---

Assay system: UniProt:Q14790
Sequence (Q14790 217-374 limits assumed): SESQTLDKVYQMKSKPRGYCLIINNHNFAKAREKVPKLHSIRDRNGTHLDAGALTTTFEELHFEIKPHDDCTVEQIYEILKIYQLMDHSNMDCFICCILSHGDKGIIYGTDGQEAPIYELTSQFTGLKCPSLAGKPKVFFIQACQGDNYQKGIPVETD
Sequence (Q14790 385-479 limits assumed): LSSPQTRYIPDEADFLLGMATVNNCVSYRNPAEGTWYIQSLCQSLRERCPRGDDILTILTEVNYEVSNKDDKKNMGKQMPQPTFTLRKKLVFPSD
Experiment summary: Inhibitory activity against Caspase-8
Each record here notes measured k3/Ki.
Unit M⁻¹ s⁻¹ implied. Number only.

Example cases with answers are listed next.
C[C@H](NC(=O)C(=O)Nc1cc(C(C)(C)C)ccc1C(C)(C)C)C(=O)N[C@@H](CC(=O)O)C(=O)COP(=O)(c1ccccc1)c1ccccc1 :: 970000
C[C@H](NC(=O)C(=O)Nc1ccc2c(c1)CCC2)C(=O)N[C@@H](CC(=O)O)C(=O)COc1c(F)c(F)cc(F)c1F :: 204000
C[C@H](NC(=O)C(=O)Nc1ccccc1Cc1ccccc1)C(=O)N[C@@H](CC(=O)O)C(=O)COc1c(F)c(F)cc(F)c1F :: 617000
Cc1c(C(=O)N[C@H](C(=O)NC(CC(=O)O)C(=O)CF)C(C)C)n(C)c2ccccc12 (some centres not stated) :: 34400
O=C(O)CC(NC(=O)[C@@H]1Cc2cccc3c2N1C(=O)[C@@H](NC(=O)OCc1ccccc1)CC3)C(=O)CF (some centres not stated) :: 98000

Q: Name the recorded k3/Ki for C[C@H](NC(=O)C(=O)Nc1ccccc1C(C)(C)C)C(=O)N[C@@H](CC(=O)O)C(=O)COC(=O)c1c(Cl)cccc1Cl .
A: 4300

Q: Quick one: C[C@H](NC(=O)C(=O)Nc1ccccc1)C(=O)N[C@@H](CC(=O)O)C(=O)COc1c(F)c(F)cc(F)c1F
A: 65300

---

Assay system: UniProt Q14790
Experiment summary: Inhibitory activity against Caspase-8
Reported metric: log10 of k3/Ki (log10 of the value in M⁻¹ s⁻¹)
The base-10 logarithm of k3/Ki, taken with k3/Ki in M⁻¹ s⁻¹, is what appears here.

Some molecules with recorded log10 of k3/Ki:
C[C@H](NC(=O)C(=O)Nc1cc(C(C)(C)C)ccc1C(C)(C)C)C(=O)N[C@@H](CC(=O)O)C(=O)COc1c(F)c(F)cc(F)c1F :: 5.56
C[C@H](NC(=O)C(=O)Nc1ccccc1-c1ccccc1)C(=O)N[C@@H](CC(=O)O)C(=O)COC(=O)c1c(Cl)cccc1Cl :: 5.53

Q: Which log10 of k3/Ki is listed for C[C@H](NC(=O)C(=O)Nc1ccccc1Cl)C(=O)N[C@@H](CC(=O)O)C(=O)COc1c(F)c(F)cc(F)c1F ?
A: 5.36

Q: Also need C[C@H](NC(=O)C(=O)Nc1ccccc1Cl)C(=O)N[C@@H](CC(=O)O)C(=O)COC(=O)c1c(Cl)cccc1Cl , thanks.
A: 2.04

Q: Now consider C[C@H](NC(=O)C(=O)Nc1cccc2ccccc12)C(=O)N[C@@H](CC(=O)O)C(=O)COc1c(F)c(F)cc(F)c1F .
A: 5.66

Q: Consider next the molecule C[C@H](NC(=O)C(=O)Nc1ccccc1C(F)(F)F)C(=O)N[C@@H](CC(=O)O)C(=O)COc1c(F)c(F)cc(F)c1F in the same way.
A: 5.52

Q: What would you report for C[C@H](NC(=O)C(=O)Nc1ccccc1C(C)(C)C)C(=O)N[C@@H](CC(=O)O)C(=O)COc1c(F)c(F)cc(F)c1F ?
A: 6.47

---

Assay system: Caspase-8 (Homo sapiens)
Experiment summary: Inhibitory activity against Caspase-8
Reported metric: k3/Ki
Just so you know, I need the unit written after the number.

Reference set (3 entries):
C[C@H](NC(=O)C(=O)Nc1ccccc1F)C(=O)N[C@@H](CC(=O)O)C(=O)COc1c(F)c(F)cc(F)c1F :: 114000 M⁻¹ s⁻¹
C[C@H](NC(=O)C(=O)Nc1ccccc1-c1ccccc1)C(=O)N[C@@H](CC(=O)O)C(=O)COP(=O)(c1ccccc1)c1ccccc1 :: 1.57e+06 M⁻¹ s⁻¹
C[C@H](NC(=O)C(=O)Nc1ccccn1)C(=O)N[C@@H](CC(=O)O)C(=O)COc1c(F)c(F)cc(F)c1F :: 201000 M⁻¹ s⁻¹

Now let's try a different one.
Q: Item C[C@H](NC(=O)C(=O)Nc1ccccc1Cl)C(=O)N[C@@H](CC(=O)O)C(=O)COP(=O)(c1ccccc1)c1ccccc1 has what recorded k3/Ki?
A: 1.41e+06 M⁻¹ s⁻¹

---

Recorded measurements of k3/Ki, one per entry
Assay system: Caspase-6 (Homo sapiens)
Experiment summary: Inhibitory activity against Caspase-6
Answer format: numeric, M⁻¹ s⁻¹ implied, no suffix.

Consider the reported k3/Ki for these molecules:
C[C@H](NC(=O)C(=O)Nc1ccccc1C(C)(C)C)C(=O)N[C@@H](CC(=O)O)C(=O)COc1c(F)c(F)cc(F)c1F :: 58700
C[C@H](NC(=O)C(=O)Nc1ccccc1C(C)(C)C)C(=O)N[C@@H](CC(=O)O)C(=O)COC(=O)c1c(Cl)cccc1Cl :: 105000
O=C(O)CC(NC(=O)[C@@H]1Cc2cccc3c2N1C(=O)[C@@H](NC(=O)OCc1ccccc1)CC3)C(=O)CF (some centres undefined) :: 25000
C[C@H](NC(=O)C(=O)Nc1ccccc1Cc1ccccc1)C(=O)N[C@@H](CC(=O)O)C(=O)COc1c(F)c(F)cc(F)c1F :: 33600

Q: Which k3/Ki value belongs to C[C@H](NC(=O)C(=O)Nc1ccc2c(c1)CCC2)C(=O)N[C@@H](CC(=O)O)C(=O)COc1c(F)c(F)cc(F)c1F ?
A: 31900

Q: Please answer likewise for C[C@H](NC(=O)C(=O)NCc1ccccc1)C(=O)N[C@@H](CC(=O)O)C(=O)COc1c(F)c(F)cc(F)c1F
A: 37100

Q: What do you get for C[C@H](NC(=O)C(=O)Nc1ccccc1F)C(=O)N[C@@H](CC(=O)O)C(=O)COc1c(F)c(F)cc(F)c1F ?
A: 19800

Q: Next up: C[C@H](NC(=O)C(=O)Nc1ccccc1-c1ccc[nH]1)C(=O)N[C@@H](CC(=O)O)C(=O)COc1c(F)c(F)cc(F)c1F
A: 7750

Q: Queued: C[C@H](NC(=O)C(=O)Nc1cc(C(C)(C)C)ccc1C(C)(C)C)C(=O)N[C@@H](CC(=O)O)C(=O)COC(=O)c1c(Cl)cccc1Cl
A: 6400

Q: And what about the molecule C[C@H](NC(=O)C(=O)Nc1ccccc1)C(=O)N[C@@H](CC(=O)O)C(=O)COc1c(F)c(F)cc(F)c1F ?
A: 31700

Q: What do you get for C[C@H](NC(=O)C(=O)Nc1ccccc1-c1ccccc1)C(=O)N[C@@H](CC(=O)O)C(=O)COC(=O)c1c(Cl)cccc1Cl ?
A: 61000

Q: Same question for C[C@H](NC(=O)C(=O)Nc1cc(C(C)(C)C)ccc1C(C)(C)C)C(=O)N[C@@H](CC(=O)O)C(=O)COP(=O)(c1ccccc1)c1ccccc1 please.
A: 7640

Q: One more molecule: C[C@H](NC(=O)C(=O)Nc1ccccc1Br)C(=O)N[C@@H](CC(=O)O)C(=O)COc1c(F)c(F)cc(F)c1F
A: 25200

Q: Would you kindly repeat that for C[C@H](NC(=O)C(=O)Nc1ccccc1Cl)C(=O)N[C@@H](CC(=O)O)C(=O)COc1c(F)c(F)cc(F)c1F ?
A: 26000

---

Assay system: Caspase-1 (Mus musculus) (UniProt P29452)
Experiment summary: Inhibitory activity against murine Caspase-1
Reported metric: k3/Ki (M⁻¹ s⁻¹)
API: value field is a number in M⁻¹ s⁻¹; no unit string.

C[C@H](NC(=O)C(=O)Nc1cccc2ccccc12)C(=O)N[C@@H](CC(=O)O)C(=O)COc1c(F)c(F)cc(F)c1F :: 1.7e+06
C[C@H](NC(=O)C(=O)Nc1cc(C(C)(C)C)ccc1C(C)(C)C)C(=O)N[C@@H](CC(=O)O)C(=O)COc1c(F)c(F)cc(F)c1F :: 1.63e+07
C[C@H](NC(=O)C(=O)Nc1ccccc1)C(=O)N[C@@H](CC(=O)O)C(=O)COc1c(F)c(F)cc(F)c1F :: 127000
C[C@H](NC(=O)C(=O)Nc1ccccc1Cl)C(=O)N[C@@H](CC(=O)O)C(=O)COc1c(F)c(F)cc(F)c1F :: 1.34e+07
C[C@H](NC(=O)C(=O)NC1CCCCC1)C(=O)N[C@@H](CC(=O)O)C(=O)COc1c(F)c(F)cc(F)c1F :: 390000
C[C@H](NC(=O)C(=O)Nc1ccccc1C(F)(F)F)C(=O)N[C@@H](CC(=O)O)C(=O)COc1c(F)c(F)cc(F)c1F :: 9.95e+06

Kindly consider the entry below.
Q: Give its k3/Ki value. Item: C[C@H](NC(=O)C(=O)Nc1cc(C(C)(C)C)ccc1C(C)(C)C)C(=O)N[C@@H](CC(=O)O)C(=O)COP(=O)(c1ccccc1)c1ccccc1
A: 2.71e+06
